TARGET OR SYSTEM: acidic FGF (aFGF) (Homo sapiens)
Sequence (P05230 16-155 limits assumed): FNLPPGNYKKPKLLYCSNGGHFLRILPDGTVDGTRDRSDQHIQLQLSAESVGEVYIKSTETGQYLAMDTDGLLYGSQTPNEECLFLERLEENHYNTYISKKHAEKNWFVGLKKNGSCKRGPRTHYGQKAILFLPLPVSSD
ASSAY COMMENT: biochemical
PROTOCOL CONDITIONS: 40° C., Table 1
PARAMETER: Approx. Molar Ratio (ligand to aFGF at 50% inhibition of aggregation)
One number for each entry.

Reference set, count: 2
O=P(O)(O)OP(=O)(O)OP(=O)(O)OP(=O)(O)O [Tetrapolyphosphate] = 1.2
Nc1ncnc2c1ncn2[C@@H]1O[C@H](COP(=O)(O)OP(=O)(O)OP(=O)(O)OP(=O)(O)OC[C@H]2O[C@@H](n3cnc4c(N)ncnc43)[C@H](O)[C@@H]2O)[C@@H](O)[C@H]1O [Ap4A] = 5

Now examine the next entry.
Exam item: Any idea what its Approx. Molar Ratio (ligand to aFGF at 50% inhibition of aggregation) is? The compound is O=S(=O)(O)OC1C(OS(=O)(=O)O)C(OS(=O)(=O)O)C(OS(=O)(=O)O)C(OS(=O)(=O)O)C1OS(=O)(=O)O (stereo not drawn) [Inositol hexasulfate, inositol hexasulfate]
Marked response: 0.6

Provenance of the data: patent US5348941A
